Assay: Urinary excretion for the compound was evaluated as percent dose excreted at 25 mg/kg intraperitoneal dosage
Format: ADME, organism-based
Design: dose 25 mg/kg, route intraperitoneal
Conditions: urine, ip
readoutLabel: dose excreted (%)

compound: CN1CCN(c2c(F)cc3c(=O)c(C(=O)O)cn4c3c2SCC4)CC1 [RUFLOXACIN]
reportedMeasurement: 22.2

###

Experiment: Urinary excretion for the compound was evaluated as percent dose excreted at 100 mg/kg oral dosage in human
Assay type: ADME, organism-based
Design: dose 100 mg/kg, route oral
Settings: urine

compoundStructureString: CN1CCN(c2c(F)cc3c(=O)c(C(=O)O)cn4c3c2SCC4)CC1
unitAnnotation: %
dose excreted: 45

###

Assay: Time taken for peak plasma concentration at a dose of 50 mg/kg, os route in rat suspended in carboxymethyl cellulose (CMC)
Assay type: ADME, organism-based
Set-up: dose 50 mg/kg
Details: po
readoutLabel: Tmax (h)

compoundStructureString: CN1CCN(c2c(F)cc3c(=O)c(C(=O)O)cn4c3c2SCC4)CC1
readoutLabel: Tmax
reportedMeasurement: 1

###

Tested on: Pseudomonas aeruginosa
Experiment: In vitro antibacterial activity against clinical isolates of Pseudomonas aeruginosa 2437 (gram negative) by agar dilution assay.
Assay type: functional
readoutLabel: MIC (µg/mL)

compound: O=C(O)c1cn2c3c(c(Cl)c(F)cc3c1=O)[S+]([O-])CC2 (stereo unspecified)
readoutLabel: MIC
prefixOperator: >
reportedMeasurement: 100
//
compound: O=C(O)c1cn2c3c(cc(F)c(Cl)c3c1=O)SCC2
readoutLabel: MIC
prefixOperator: >
reportedMeasurement: 50
//
compound: O=C(O)c1cn2c3c(cccc3c1=O)SCC2
readoutLabel: MIC
prefixOperator: =
reportedMeasurement: 50
//
compound: O=C(O)c1cn2c3c(c(Cl)c(Cl)cc3c1=O)SCC2
readoutLabel: MIC
prefixOperator: >
reportedMeasurement: 50
//
compound: O=C(O)c1cn2c3c(c(Cl)c(N4CCOCC4)cc3c1=O)SCC2
readoutLabel: MIC
prefixOperator: =
reportedMeasurement: 6.25
//
compound: O=C(O)c1cn2c3c(cc(Cl)cc3c1=O)SCC2
readoutLabel: MIC
prefixOperator: >
reportedMeasurement: 100
//
compound: CC1CN(c2c(F)cc3c(=O)c(C(=O)O)cn4c3c2SCC4)CC(C)N1 (stereo unspecified)
readoutLabel: MIC
prefixOperator: =
reportedMeasurement: 100
//
compound: O=C(O)c1cn2c3c(cc(F)cc3c1=O)S(=O)(=O)CC2
readoutLabel: MIC
prefixOperator: >
reportedMeasurement: 50
//
compound: O=C(O)c1cn2c3c(cc(N4CCCC4)cc3c1=O)SCC2
readoutLabel: MIC
prefixOperator: =
reportedMeasurement: 100
//
compound: O=C(O)c1cn2c3c(c(N4CCN(C(=O)C(F)(F)F)CC4)c(F)cc3c1=O)SCC2
readoutLabel: MIC
prefixOperator: =
reportedMeasurement: 12.5
//
compound: O=C(O)c1cn2c3c(cc(N4CCN(Cc5ccccc5)CC4)cc3c1=O)SCC2
readoutLabel: MIC
prefixOperator: >
reportedMeasurement: 50

###

Assay: Total clearance was determined in rat at 10 mg/kg intraperitoneal dosage
Format: ADME, organism-based
Design: dose 10 mg/kg, route intraperitoneal
Details: in vivo, ip, read-out: Clearance (converted)

compoundStructureString: CN1CCN(c2c(F)cc3c(=O)c(C(=O)O)cn4c3c2SCC4)CC1
unitAnnotation: mL/min/kg
CL/F: 4.22
